- SYSTEM_TESTED: T1, human ROR1-Fz (Homo sapiens, UniProt Q01973)
- T1 construct: Frizzled (Fz, residues 165-305); His6 (C); purchased Acro Biosystems; host or cells: HEK293
- ASSAY_SUMMARY: Biacore off-rate and kinetic analysis, ROR1-Fz
- Type: binding
- APPLIED_CONDITIONS: Table 11; SP34 light chain
Parameter Biacore human ROR1-Fz kd: see the listing below.
ASSAY_METRIC: Biacore human ROR1-Fz kd (s⁻¹)

molecule="SRP2196-B07 (antibody, V domains shown) VH: EVQLVESGGGLVQPGGSLRLSCAASGFNITGYHIHWVRQAPGEGLEWVGYISPNSGATYYADSVEGRFTISADTSKNTAYLQMHSLRAEDTAVYYCTRDSRRYVRGWDYWGQGTLVTVSS VL: QAVVTQESALTTSPGETVTLTCRSSTGAVTTSNYANWVQEKPDHLFTGLIGGTNKRAPGVPARFSGSLIGDKAALTITGAQTEDEAIYFCALWYSNLWVFGGGTKLTVL" readout_unit=s⁻¹ result=0.000269
molecule="SRP2196-A03 (antibody, V domains shown) VH: EVQLVESGGGLVQPGGSLRLSCAASGFNITQYHIHWVRQAPGKGLEWVGYISPNSGSTHEADSVKGRFTISADTSKNTAYLQMNSLRAEDTAVYYCARDSRRYVRGWDYWGQGTLVTVSS VL: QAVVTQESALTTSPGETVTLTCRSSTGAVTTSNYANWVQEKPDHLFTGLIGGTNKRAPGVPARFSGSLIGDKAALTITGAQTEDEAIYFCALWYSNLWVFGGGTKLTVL" readout_unit=s⁻¹ result=0.000275
molecule="SRP2196-B01 (antibody, V domains shown) VH: EVQLVESGGGLVQPGGSLRLSCAASGFNITGYYIHWVRQAPGKGLEWVGQISPNSGYTYYADSVKGRFTISADTSKNTTYLQMNSLRAEDTAVYYCARDSRRYVRSWDYWGQGTLVTVSS VL: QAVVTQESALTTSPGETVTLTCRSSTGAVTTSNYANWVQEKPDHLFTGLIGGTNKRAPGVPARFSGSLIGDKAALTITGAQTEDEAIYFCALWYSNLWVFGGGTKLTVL" readout_unit=s⁻¹ result=0.000401
molecule="SRP2196-B06 (antibody, V domains shown) VH: EVQLVESGGGLVQPGGSLRLSCAASGFNITGYYIHWVRQAPGKGLEWVGQISPNSGSTYSADSVKGRFTISADTSKNTAYLQMNSLRAEDTAVYYCARDSRRYVLSWDYWGQGTLVTVSS VL: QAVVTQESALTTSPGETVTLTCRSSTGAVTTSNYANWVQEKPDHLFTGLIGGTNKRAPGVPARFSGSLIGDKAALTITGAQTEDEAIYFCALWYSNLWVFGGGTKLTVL" readout_unit=s⁻¹ result=0.000423
molecule="SRP1944-A07 w SP34 LC3: \"initial antibody leads constructed with an SP34 light chain\" (antibody, V domains shown) VH: EVQLVESGGGLVQPGGSLRLSCAASGFNITGYYIHWVRQAPGKGLEWVGYISPNSGSTYYADSVKGRFTISADTSKNTAYLQMNSLRAEDTAVYYCARDSRRYVRPFDYWGQGTLVTVSS VL: QTVVTQEPSLTVSPGGTVTLTCGSSTGAVTSGYYPNWFQQKPGQAPRGLIGGTKFLAPGTPARFSGSLLGGKAALTLSGVQPEDEAEYYCALWYSNRWVFGGGTQLTVTG" readout_unit=s⁻¹ result=0.0085
